Test system: wheat (Triticum aestivum)
Test: Test A postemergence
Assay type: in vivo
Conditions: Triticum aestivum, post-emergence, 240 h, 125 g ai/ha, postemergence, visual injury vs untreated controls after approx. 10 d; 0 = no effect, 100 = complete control; read-out: Wheat plant response rating (0 to 100 scale)
Collected plant injury at 125 g/ha values appear next to each entry.

| compound | plant injury at 125 g/ha |
| --- | --- |
| C=C(C)c1ccc([C@H]2CN(C)C(=O)[C@@H]2C(=O)Nc2ccc(F)c(F)c2F)cc1 [Compound 1148] | 0% |
| CN1C[C@H](c2ccc(F)c(Oc3ccccc3)c2)[C@@H](C(=O)Nc2ccccc2F)C1=O [Compound 1141] | 20% |
| CSc1ccccc1NC(=O)[C@H]1C(=O)N(C)CC[C@@H]1c1ccc(C(F)(F)F)cc1 [Compound 1227] | 0% |
| Cc1cc([C@H]2CN(C)C(=O)[C@@H]2C(=O)Nc2ccccc2F)on1 [Compound 1195] | 0% |
| CN1C[C@H](c2cccc(C(F)(F)F)c2)[C@@H](C(=O)Nc2ccccc2CCO)C1=O (racemic) [Compound 1162] | 20% |
| CN1C[C@H](c2ccc(C#N)c(F)c2)[C@@H](C(=O)Nc2cccc(F)c2F)C1=O [Compound 1192] | 0% |
| COc1ccc([C@H]2CN(C)C(=O)[C@@H]2C(=O)Nc2cccc(F)c2F)c(OC)c1 [Compound 1209] | 0% |
| CC(O)c1ccccc1NC(=O)C1C(=O)N(C)CC1c1cccc(C(F)(F)F)c1 (stereo not drawn) [Compound 1147] | 0% |
| Cc1ccc([C@H]2CN(C)C(=O)[C@@H]2C(=O)Nc2cccc(F)c2C)cc1 [Compound 1186] | 60% |

---

System: pigweed (Amaranthus retroflexus)
Assay: Test A postemergence
Type: in vivo
Conditions: Amaranthus retroflexus, post-emergence, 240 h, Postemergence, 31 g ai/ha; visual injury after approx. 10 d; 0 to 100 scale, 0 no effect, 100 complete control; read-out: Plant response rating, Pigweed
Collected pest or weed control at 31 g/ha values appear next to each entry.

| molecule | pest or weed control at 31 g/ha (%) |
| --- | --- |
| CN1C[C@H](c2csc3c2CCCC3)[C@@H](C(=O)Nc2ccccc2S(C)(=O)=O)C1=O [Compound 1080] | 0 |
| CN1C[C@H](c2cccc(C(F)(F)F)c2)[C@@H](C(=O)Nc2ccccc2CCO)C1=O (racemic) [Compound 1162] | 0 |
| CN1CC(c2cccc(C(F)(F)F)c2)C(C(=O)Nc2ccccc2C(C)(C)O)C1=O (stereo not drawn) [Compound 1146] | 0 |
| Cc1cc(F)cc([C@H]2CN(C)C(=O)[C@@H]2C(=O)Nc2cccc(F)c2C#N)c1 [Compound 800] | 20 |
| CN1CC[C@H](c2ccccc2C(F)(F)F)[C@@H](C(=O)Nc2ccccc2C(F)(F)F)C1=O [Compound 1008] | 0 |
| CN1C[C@H](c2ccc(F)c(Oc3ccccc3)c2)[C@@H](C(=O)Nc2ccccc2F)C1=O [Compound 1141] | 30 |

---

Tested on: morningglory (Ipomoea coccinea)
Assay: Test C preemergence
Assay type: in vivo
Details: 125 g ai/ha, scale 0 to 100, 0 no effect, 100 complete control
Collected Plant response rating, Morningglory values appear next to each entry.

| compound | experimentalSystem | Plant response rating, Morningglory |
| --- | --- | --- |
| O=C1NCC(c2cc(F)cc(C(F)(F)F)c2)C1C(=O)Nc1cccc(F)c1F (centres unmarked) [Compound 488] | morningglory (Ipomoea coccinea) | 55 |
| CN1CC(c2cccc(OC(F)(F)C(F)F)c2)C(C(=O)Nc2ccccc2C(F)(F)F)C1=O (centres unmarked) [Compound 431] | morningglory (Ipomoea coccinea) | 10 |
| CN1C[C@H](c2ccc(F)c(F)c2)[C@@H](C(=O)Nc2ccccc2F)C1=O [Compound 596] | morningglory (Ipomoea coccinea) | 10 |
| CN1CC(c2cccc(OC(F)(F)C(F)F)c2)C(C(=O)Nc2ccc(F)c(F)c2F)C1=O (centres unmarked) [Compound 429] | morningglory (Ipomoea coccinea) | 20 |
| O=C1NCC(c2ccc3c(c2)OC(F)(F)O3)C1C(=O)Nc1cccc(F)c1F (centres unmarked) [Compound 635] | morningglory (Ipomoea coccinea) | 30 |
